Listing of recorded % parent compound remaining, Average by entry.
test system: pooled human cryopreserved hepatocytes (pHHeps); test: Metabolic stability, pooled human cryopreserved hepatocyte incubations; settings: pHHeps, 15 min
# output: bare number, implied unit %

{"columns": ["molecule", "observed_property", "unit_label", "measured"],
 "data": [
  ["C=CCCCn1nc(C(=O)N[C@@H](C(=O)OC)C(C)(C)C)c2ccccc21 [(R)-MDMB-4en-PINACA (5)]", "% parent compound remaining, Average", "%", 58.1]
]}

# value of % parent compound remaining, Average, pooled human cryopreserved hepatocytes (pHHeps), item COC(=O)[C@H](NC(=O)c1nn(Cc2ccc(F)cc2)c2ccccc12)C(C)(C)C [(R)-MDMB-FUBINACA (6)] = 70.2

Hey, pooled human cryopreserved hepatocytes (pHHeps) data for COC(=O)[C@H](NC(=O)c1cn(CCCCCF)c2ccccc12)C(C)(C)C [(R)-5F-MDMB-PICA (3)] : % parent compound remaining, Average came out at 78.8

Per the reported pooled human cryopreserved hepatocytes (pHHeps) data, C=CCCCn1cc(C(=O)N[C@H](C(=O)OC)C(C)(C)C)c2ccccc21 [(S)-MDMB-4en-PICA (12)] has % parent compound remaining, Average of 74.0

Just for reference, paper PMC7961380 is where these values come from.
